Reported pEC50 values follow for various molecules
target: hT1R1/hT1R3 umami receptor (Homo sapiens, UniProt Q7RTX0+Q7RTX1); construct: expressed in transfected cells; host or cells: HEK293 derivative stably expressing Gα15, clone I-17, expression induced with mifepristone; assay: In vitro hT1R1/hT1R3 umami taste receptor activation assay (FLIPR, dose response); assay type: cell-based; details: opposite enantiomers compared; read-out: AFFINITY FOR T1R1/T1R3 SAVORY RECEPTOR EC50 UM
Remember the convention: pEC50 equals -log10 of concentration in molar.

COc1ccc(C(=O)N[C@H]2CCc3ccccc32)cc1C [drawing 26]    7.10
CCOc1ccc(C(=O)N[C@@H]2CCc3ccccc32)cc1C    5.34
CCOc1ccc(C(=O)N[C@H]2CCc3ccccc32)cc1C [drawing 28]    6.07
COc1cccc(C(=O)N[C@H]2CCCc3ccccc32)c1N    8.00
COc1cccc(C(=O)N[C@@H]2CCCc3ccccc32)c1N [drawing 29]    7.05

Now for a further molecule.
Query: # query: pEC50 | item COc1ccc(C(=O)N[C@@H]2CCc3ccccc32)cc1C | system: hT1R1/hT1R3 umami receptor (Homo sapiens, UniProt Q7RTX0+Q7RTX1)
Response: 5.67

---

molecular target: hT1R1/hT1R3 umami receptor (Homo sapiens, UniProt Q7RTX0+Q7RTX1); construct: expressed in transfected cells; host or cells: HEK293 derivative stably expressing Gα15, clone I-17, expression induced with mifepristone; assay: In vitro hT1R1/hT1R3 umami taste receptor activation assay (FLIPR, dose response); assay type: cell-based; details: read-out: EC50 for activation of a hT1R1/hT1R3 umami receptor expressed in an HEK293 cell line
Okay, here is how we bin by EC50: Low (below 400 nM), Mid (400 nM to below 2000 nM), High (2000 nM or more)

For orientation, consider the following solved cases.
COC(=O)[C@@H](CC(C)C)NC(=O)c1ccc(C)c(SC)c1    Low
COC(=O)[C@@H](CC(C)C)NC(=O)c1cc2cc(C)ccc2o1    Low
CCCC(CCC)NC(=O)c1ccc(OC)c(OC)c1    Low
CCCC(COC(C)=O)NC(=O)c1ccc2c(c1)OCO2 (stereo not shown)    High
CCCC(CCC)NC(=O)c1ccc2[nH]cnc2c1    High
CCCC(NC(=O)c1ccc(OCC)c(C)c1)c1ccc(OC)cc1 (stereo not shown)    High
COCOC[C@@H](CC(C)C)NC(=O)c1ccc(C)c(C)c1    Mid
CCCC(CCC)NC(=O)c1ccc2oc(C)nc2c1    Low
COC(=O)[C@@H](CC(C)C)NC(=O)c1ccc(OC)c(Cl)c1    Low
CCC(CC(C)C)NC(=O)c1ccc(OC)c(C)c1 (stereo not shown)    Low

Okay, next one:
Query: # bin label for O=C(NCCc1ccccn1)C(=O)NCc1ccccc1O
Response: High

---

Target: hT1R1/hT1R3 umami receptor (Homo sapiens, UniProt Q7RTX0+Q7RTX1)
Construct: expressed in transfected cells; host or cells: HEK293 derivative stably expressing Gα15, clone I-17, expression induced with mifepristone
Sequence (Q7RTX1 21-841): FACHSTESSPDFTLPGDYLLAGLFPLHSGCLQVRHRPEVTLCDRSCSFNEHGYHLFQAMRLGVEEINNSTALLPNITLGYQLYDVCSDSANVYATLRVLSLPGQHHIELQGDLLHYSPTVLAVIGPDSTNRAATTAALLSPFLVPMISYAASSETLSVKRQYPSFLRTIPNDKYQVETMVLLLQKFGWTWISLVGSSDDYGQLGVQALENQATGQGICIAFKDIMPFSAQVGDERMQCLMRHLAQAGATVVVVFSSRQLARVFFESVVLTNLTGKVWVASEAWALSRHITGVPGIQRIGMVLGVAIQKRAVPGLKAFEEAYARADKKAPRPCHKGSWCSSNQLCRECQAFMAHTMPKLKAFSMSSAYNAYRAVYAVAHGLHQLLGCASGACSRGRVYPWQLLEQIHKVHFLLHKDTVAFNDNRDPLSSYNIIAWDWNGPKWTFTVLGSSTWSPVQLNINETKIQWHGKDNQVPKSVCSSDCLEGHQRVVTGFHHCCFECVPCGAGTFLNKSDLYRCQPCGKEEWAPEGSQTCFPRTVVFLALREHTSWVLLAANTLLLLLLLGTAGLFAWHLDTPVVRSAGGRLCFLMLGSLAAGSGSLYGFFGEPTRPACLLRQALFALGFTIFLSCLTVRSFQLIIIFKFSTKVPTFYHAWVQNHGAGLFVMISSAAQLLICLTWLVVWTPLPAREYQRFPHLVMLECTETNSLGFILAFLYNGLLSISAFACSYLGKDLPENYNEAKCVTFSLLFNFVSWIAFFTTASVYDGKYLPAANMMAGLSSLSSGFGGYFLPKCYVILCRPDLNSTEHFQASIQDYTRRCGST
Sequence (Q7RTX0 21-852): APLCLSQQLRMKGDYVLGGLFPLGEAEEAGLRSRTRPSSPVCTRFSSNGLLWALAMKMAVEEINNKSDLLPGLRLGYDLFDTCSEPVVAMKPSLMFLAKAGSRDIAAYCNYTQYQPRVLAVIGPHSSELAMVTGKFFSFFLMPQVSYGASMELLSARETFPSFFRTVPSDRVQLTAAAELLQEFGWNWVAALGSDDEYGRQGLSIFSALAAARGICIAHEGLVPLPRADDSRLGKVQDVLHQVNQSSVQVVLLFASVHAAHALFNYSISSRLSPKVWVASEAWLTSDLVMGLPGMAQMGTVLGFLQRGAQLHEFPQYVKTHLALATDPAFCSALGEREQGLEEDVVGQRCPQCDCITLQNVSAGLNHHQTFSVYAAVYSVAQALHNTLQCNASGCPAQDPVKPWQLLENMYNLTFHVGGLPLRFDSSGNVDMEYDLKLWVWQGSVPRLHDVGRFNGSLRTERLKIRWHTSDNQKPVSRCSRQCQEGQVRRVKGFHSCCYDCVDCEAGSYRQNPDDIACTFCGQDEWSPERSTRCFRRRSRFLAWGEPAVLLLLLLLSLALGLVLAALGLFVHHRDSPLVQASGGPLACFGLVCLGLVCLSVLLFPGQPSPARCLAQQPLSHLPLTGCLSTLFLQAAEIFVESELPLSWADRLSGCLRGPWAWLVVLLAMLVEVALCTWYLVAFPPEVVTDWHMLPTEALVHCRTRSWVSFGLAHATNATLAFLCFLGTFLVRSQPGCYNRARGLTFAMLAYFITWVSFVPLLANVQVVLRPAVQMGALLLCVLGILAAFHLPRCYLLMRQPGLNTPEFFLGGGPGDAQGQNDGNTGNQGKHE
Assay: In vitro hT1R1/hT1R3 umami taste receptor activation assay (FLIPR, dose response)
Format: cell-based
Details: Table A, Umami Amides; read-out: Umami EC50
Okay, here is how we bin by EC50: low bin (below 400 nM), mid bin (400 nM to below 600 nM), high bin (600 nM or more)

For orientation, consider the following solved cases.
COC(=O)[C@@H](CC(C)C)NC(=O)c1ccc2ccccc2c1 [Example A40]    low bin
CSc1ccc(C(=O)NC(C(C)C)C(C)C)cc1C [Example A88]    mid bin
COc1cccc(C(=O)NC2CCCc3ccccc32)c1O (stereo not shown) [Example A87]    mid bin
CCCCC(NC(=O)c1ccc(OC)c(Cl)c1)C(=O)OC (stereo not shown) [Example A55]    low bin
CCCC(CC(C)C)NC(=O)c1ccc(OCC)c(C)c1 (stereo not shown) [Example A92]    high bin

Query: # bin label for CCCC(CCC)NC(=O)c1cccc(CC)c1 [Example A116, 3-ethyl-N-(heptan-4-yl)benzamide]
Response: low bin
